# target_entity: 1-phosphatidylinositol 3-phosphate 5-kinase [S696N,L932S,Q995L,T998S,S1033A,Q1183K] (Homo sapiens, UniProt Q9Y2I7, L932S/Q1183K/Q995L/S1033A/S696N/T998S)
# Sequence (Q9Y2I7 2-2098 S696N/L932S/Q995L/T998S/S1033A/Q1183K limits assumed): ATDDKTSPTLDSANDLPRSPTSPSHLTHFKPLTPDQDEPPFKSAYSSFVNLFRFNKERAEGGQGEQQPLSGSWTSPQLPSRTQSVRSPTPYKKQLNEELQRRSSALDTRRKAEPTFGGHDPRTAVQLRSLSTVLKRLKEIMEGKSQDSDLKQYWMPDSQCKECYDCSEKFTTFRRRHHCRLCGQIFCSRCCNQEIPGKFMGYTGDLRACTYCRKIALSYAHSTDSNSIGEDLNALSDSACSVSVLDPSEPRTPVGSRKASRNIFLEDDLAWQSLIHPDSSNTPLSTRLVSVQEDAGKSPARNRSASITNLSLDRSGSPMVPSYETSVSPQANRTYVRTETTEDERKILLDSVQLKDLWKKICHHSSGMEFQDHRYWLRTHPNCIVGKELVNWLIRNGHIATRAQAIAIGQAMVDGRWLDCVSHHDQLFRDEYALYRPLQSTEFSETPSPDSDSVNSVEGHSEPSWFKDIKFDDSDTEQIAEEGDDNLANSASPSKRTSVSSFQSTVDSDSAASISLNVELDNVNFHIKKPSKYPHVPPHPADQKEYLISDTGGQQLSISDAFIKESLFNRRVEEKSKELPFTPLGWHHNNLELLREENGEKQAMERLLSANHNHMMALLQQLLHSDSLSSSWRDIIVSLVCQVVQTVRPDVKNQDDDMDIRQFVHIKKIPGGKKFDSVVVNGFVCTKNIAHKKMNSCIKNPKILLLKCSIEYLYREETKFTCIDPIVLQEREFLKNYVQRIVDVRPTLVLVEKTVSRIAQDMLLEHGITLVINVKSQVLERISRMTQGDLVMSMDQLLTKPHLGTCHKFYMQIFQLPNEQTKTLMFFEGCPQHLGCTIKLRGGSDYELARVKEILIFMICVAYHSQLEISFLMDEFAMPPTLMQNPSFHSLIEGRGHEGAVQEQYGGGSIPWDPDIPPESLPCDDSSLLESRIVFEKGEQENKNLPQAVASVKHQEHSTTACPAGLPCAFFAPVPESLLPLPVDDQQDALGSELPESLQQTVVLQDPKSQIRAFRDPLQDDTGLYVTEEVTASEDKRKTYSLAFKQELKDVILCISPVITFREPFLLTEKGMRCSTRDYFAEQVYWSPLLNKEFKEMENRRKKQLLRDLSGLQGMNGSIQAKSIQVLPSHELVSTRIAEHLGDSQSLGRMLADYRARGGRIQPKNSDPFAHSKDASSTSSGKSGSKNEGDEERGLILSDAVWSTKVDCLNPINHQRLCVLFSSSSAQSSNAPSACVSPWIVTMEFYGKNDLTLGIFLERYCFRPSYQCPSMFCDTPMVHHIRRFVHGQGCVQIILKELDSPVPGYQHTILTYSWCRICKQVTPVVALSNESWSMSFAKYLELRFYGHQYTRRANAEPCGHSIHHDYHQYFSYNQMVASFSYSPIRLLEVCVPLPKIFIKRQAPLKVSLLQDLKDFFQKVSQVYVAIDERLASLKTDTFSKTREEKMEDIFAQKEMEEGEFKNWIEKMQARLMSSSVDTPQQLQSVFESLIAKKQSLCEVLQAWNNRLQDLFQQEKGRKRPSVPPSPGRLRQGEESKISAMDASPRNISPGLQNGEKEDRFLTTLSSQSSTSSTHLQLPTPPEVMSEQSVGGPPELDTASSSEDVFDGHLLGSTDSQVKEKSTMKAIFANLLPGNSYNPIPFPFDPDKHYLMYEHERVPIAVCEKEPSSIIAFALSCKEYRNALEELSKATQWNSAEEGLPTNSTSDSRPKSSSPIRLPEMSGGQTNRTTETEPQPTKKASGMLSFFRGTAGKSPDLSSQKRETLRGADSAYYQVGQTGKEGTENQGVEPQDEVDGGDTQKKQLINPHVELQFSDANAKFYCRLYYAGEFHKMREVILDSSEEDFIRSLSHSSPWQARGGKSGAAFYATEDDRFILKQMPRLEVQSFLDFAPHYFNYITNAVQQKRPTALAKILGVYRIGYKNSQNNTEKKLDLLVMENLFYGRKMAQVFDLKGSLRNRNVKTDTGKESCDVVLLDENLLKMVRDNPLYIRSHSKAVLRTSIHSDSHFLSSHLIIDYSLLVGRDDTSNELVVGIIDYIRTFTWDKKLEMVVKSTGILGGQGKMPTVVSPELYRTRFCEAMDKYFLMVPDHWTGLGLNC
# measurement_notes: PIKfyve Biochemical Assay
pIC50: −log10 of the molar value.
assay_metric: pIC50

Requested read-out: pIC50. Entry: c1ccc(-c2c[nH]c3c(-c4ccncc4)nc(N4CCOCC4)nc23)cc1 [US20250145642, Compound 135]
> 8.00

Measured values drawn from BindingDB's records for patent US20250145642 for this set.
